test system: K-562 leukemia; test: NCI tumour cell line growth inhibition, 48 h; in the data active = GI50 below about 0.43 µM; inactive = the rest
Answer with one of the outcomes given here: active, inactive

Below are worked cases with known answers.
Compound: COc1ncc2cc1NS(=O)(=O)c1cccc(c1)C(=O)NCC1=CC=C(S1)c1ncnc3c1SC2=C3C
System tested: K-562 leukemia
Answer label: inactive
--
Compound: COC(=O)C1=Nc2ccc(F)cc2/C1=C/c1sc(=S)[nH]c1O
System tested: K-562 leukemia
Answer label: active

Q. So what was the verdict on Cc1n(Cc2ccc3ccccc3n2)cc[n+]1Cc1ccc2ccccc2c1 in this test?
A. active

Q. Hi, do you know how C=CC[PH+](c1ccccc1)c1ccccc1.C=CC[PH+](c1ccccc1)c1ccccc1.[Pt+2].[S-]c1ncccn1.[S-]c1ncccn1 came out in this test?
A. inactive

Q. Dear colleague, could you share the recorded outcome for CCOC(=O)C1=C(C)N(Cc2ccc(Cl)cc2Cl)[C@]2(C#N)C(O)=C(Cl)C(Cl)=C(O)[C@]12C#N when you have a moment?
A. inactive

Q. What classification did Cc1ccc(NC2=CC(=O)C(=O)c3ccccc32)c(C)c1 end up with in this test?
A. inactive

Q. Test call, this compound: CCN(CC)C(=S)SSCCO
A. inactive

Q. Please let me know the test result on file for Cc1ccc(O)cc1Nc1ccnc2cc(-c3ccccn3)ccc12 .
A. active

Q. Hi, sorry to bother you, what did the test record for CCc1c(C#N)c(SC(C(N)=O)c2ccccc2)nc(N2CCC(N)CC2)c1C#N (stereo unspecified) ?
A. inactive

Q. Which outcome was entered for the compound CCN(CCNc1ccc(C)c2sc3cc(Cl)ccc3c(=O)c12)CC(C)(C)O in this test?
A. inactive

Q. Fill in: this test's call for O=C(CN(/C=C/C(=O)C(F)(F)F)c1ccccc1)c1ccc(F)cc1 is ___
A. inactive

* * *

system: OVCAR-8 ovarian; assay: NCI tumour cell line growth inhibition, 48 h
Kindly state TGI for each of the entries shown.

// below: answered compounds
Compound: CCCCC1Cc2cc(OC)ccc2-c2n1c1cc(OC)ccc1[n+]2C (stereo not given) (tested in a mixture with another compound)
TGI: 49 µM
--
Compound: O=C(CN(/C=C/C(=O)C(F)(F)F)c1ccccc1)c1ccc(F)cc1
TGI: > 100 µM
--
Compound: COC(=O)c1cc2ccccc2c2nc3ccccc3c(Cl)c12
TGI: > 100 µM
--
Compound: CON(C)C(=O)C(C)NC(=O)OC(C)(C)C (stereo not given)
TGI: > 100 µM
--
Compound: COC(=O)[C@]1(C)CCCC2(C)C3=C(CCC21)CC1(CC3)SCCS1 (stereo not given in full)
TGI: > 10 µM
--
Compound: Brc1ccc(-c2nc(-c3ccc(Br)cc3)n(-c3ccccc3)n2)cc1
TGI: > 100 µM

Take each entry in turn and give its TGI.
1. Clc1cccc2[nH]ncc12
2. CC(C)c1cc(C(C)C)c(Cl)c(Cl)c1O (tested in a mixture with another compound)
3. O=C([O-])C1([n+]2c(-c3ccccc3)cc(-c3ccccc3)cc2-c2ccccc2)CC1
4. O=c1c2ccccc2n2cnc3ccc(NCCNCCO)c1c32

A.
> 100 µM
76.1 µM
> 100 µM
5.02 µM

* * *

Would you kindly list TGI for each of these molecules?
tested on: NCI-H226 lung; assay: NCI tumour cell line growth inhibition, 48 h

These solved cases illustrate the format of a correct answer.
Molecule: C/C(=N\Nc1nc2ccccc2n1C)c1ccc2ccccc2n1
TGI: 6.83 µM
//
Molecule: C1=C(c2ccccc2)C(OC2Oc3ccccc3C=C2c2ccccc2)Oc2ccccc21 (stereo not drawn)
TGI: > 100 µM
//
Molecule: COc1cccc(N2C(=O)C3CC(CC(C)(C)C)c4c([nH]c5ccccc45)C3C2=O)c1 (stereo not drawn)
TGI: > 10 µM
//
Molecule: Nc1c(-c2nc3ccccc3s2)[n+]([O-])c2ccccc2[n+]1[O-]
TGI: > 100 µM
//
Molecule: Cn1c(CC(O)c2nc3ccccc3n2C)nc2ccccc21 (stereo not drawn)
TGI: > 72.3 µM

Quick batch: TGI for everything below.
1. C=CC(C)(O)CCC1C(=C)C(O)CC2C(C)(C)CCCC12C (stereo not drawn)
2. c1ccc2c(c1)[O][Sn][O]2
3. CC1=CC(=O)c2c(O)c3c(c(O)c2C1=O)C1C(O)C(C3=O)C23C(=O)c4c(O)c(C)cc(O)c4C(O)=C2C(=O)CC(O)C13 (stereo not drawn)
4. O/N=C1\CSc2ccccc2C1
5. O=c1c2cccc3cccc(c4n1CCCN=4)c32
6. Nc1c(C(=O)Nc2ccccn2)sc2nc3c(cc12)CCCCCC3
7. O=S(=O)(c1ccc2ccccc2c1)N1CCN(S(=O)(=O)c2ccc3ccccc3c2)CC1

A.
1: 29.2 µM; 2: > 150 µg/mL; 3: 6.56 µM; 4: > 100 µM; 5: > 100 µM; 6: 18.5 µM; 7: > 100 µM
